experimental-protocol: Cytotoxicity against Homo sapiens (human) WRL68 cells at 100 uM after 48 hr by MTT assay
Assay type: cell-based
assay-setup: read-out: INH
Measured cytotoxicity at 48 h, 100 µM values are reported for all entries that follow.

{"smiles-input": "O=C(NCCCCCCN1C(=O)CSC1=O)c1ccccc1", "cytotoxicity at 48 h, 100 µM / %": 34.7}
{"smiles-input": "O=C1CSC(=O)N1CCCCCCNS(=O)(=O)c1ccccc1", "cytotoxicity at 48 h, 100 µM / %": 37.5}
